Please go through the items and note down their phosphorylation enrichment.
target: FGFR1 (UniProt P11362); assay: phosphorylation enrichment, bacterial display (enrichment ratio); higher = better substrate or ligand; peptides without Tyr show the background;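 further: 11-residue human phosphosite peptides and single-mutation variants displayed on the E. coli surface, counted by deep sequencing, each peptide's frequency after selection divided by its frequency in the unselected input library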;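 further: frequency after pTyr selection over input frequency; kinase dosed for 20-30% of maximal phosphorylation in three min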
Sequence (P11362 whole entry, looked up): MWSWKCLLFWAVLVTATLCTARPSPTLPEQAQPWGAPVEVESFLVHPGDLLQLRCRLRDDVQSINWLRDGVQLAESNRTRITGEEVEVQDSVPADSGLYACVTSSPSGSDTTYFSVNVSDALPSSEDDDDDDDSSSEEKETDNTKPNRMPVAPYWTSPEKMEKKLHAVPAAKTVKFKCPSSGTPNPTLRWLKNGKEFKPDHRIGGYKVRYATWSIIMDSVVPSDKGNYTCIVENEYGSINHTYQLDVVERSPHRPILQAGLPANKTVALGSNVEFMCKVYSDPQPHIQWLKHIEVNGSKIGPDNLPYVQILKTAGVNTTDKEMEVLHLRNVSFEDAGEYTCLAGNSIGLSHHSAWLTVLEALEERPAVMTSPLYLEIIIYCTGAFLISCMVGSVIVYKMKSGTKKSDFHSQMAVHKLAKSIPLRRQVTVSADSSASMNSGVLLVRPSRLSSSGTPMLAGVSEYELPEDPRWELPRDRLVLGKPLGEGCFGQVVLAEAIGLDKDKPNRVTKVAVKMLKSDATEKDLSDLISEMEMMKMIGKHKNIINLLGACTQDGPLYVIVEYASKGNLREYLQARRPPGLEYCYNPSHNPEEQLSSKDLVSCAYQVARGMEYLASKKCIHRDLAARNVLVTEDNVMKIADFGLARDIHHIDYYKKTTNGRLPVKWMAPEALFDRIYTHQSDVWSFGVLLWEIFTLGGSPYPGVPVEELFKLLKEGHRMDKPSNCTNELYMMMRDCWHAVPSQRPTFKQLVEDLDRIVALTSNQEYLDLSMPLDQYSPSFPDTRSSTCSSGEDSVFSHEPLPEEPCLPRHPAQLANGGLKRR
// keep it numeric: no unit symbol after the value

Challenge: Write down the reported phosphorylation enrichment (system: FGFR1 (UniProt P11362)) of NTGVFYDLFGG [PTPN11_Y63_D61V_YF]
Response given: 0.455

Challenge: Write down the reported phosphorylation enrichment (system: FGFR1 (UniProt P11362)) of QLLIEYPPEEV [ZZZ3_Y670_K669E]
Response given: 0.659

Challenge: Write down the reported phosphorylation enrichment (system: FGFR1 (UniProt P11362)) of SSSGGYGGGFG [KRT19_Y61_A60G_YF]
Response given: 0.32

Challenge: Write down the reported phosphorylation enrichment (system: FGFR1 (UniProt P11362)) of VLTSKYHGGGG [HBA1_Y141_R142H]
Response given: 0.772

Challenge: Write down the reported phosphorylation enrichment (system: FGFR1 (UniProt P11362)) of SGIFQYIIAKF [FOXL2_Y83_YF]
Response given: 0.639

Challenge: Write down the reported phosphorylation enrichment (system: FGFR1 (UniProt P11362)) of VGTKRYMAPEV [ACVRL1_Y375]
Response given: 0.413

Challenge: Write down the reported phosphorylation enrichment (system: FGFR1 (UniProt P11362)) of EQKKFYNAMKN [SCN5A_Y1495_K1500N_YF]
Response given: 0.366

Challenge: Write down the reported phosphorylation enrichment (system: FGFR1 (UniProt P11362)) of DPHKIFEFVNS [IRF3_Y107_Y107F]
Response given: 0.643

Challenge: Write down the reported phosphorylation enrichment (system: FGFR1 (UniProt P11362)) of GQAPGYSFTAA [CYCS_Y47_YF]
Response given: 0.422

Challenge: Write down the reported phosphorylation enrichment (system: FGFR1 (UniProt P11362)) of KIDAKYKKKIE [WDR19_Y1230]
Response given: 0.368

Challenge: Write down the reported phosphorylation enrichment (system: FGFR1 (UniProt P11362)) of EYGRRYGFSRQ [CCDC93_Y209]
Response given: 0.389

Challenge: Write down the reported phosphorylation enrichment (system: FGFR1 (UniProt P11362)) of KEAVLYPHLPP [SQSTM1_Y383_A381V]
Response given: 0.444

Challenge: Write down the reported phosphorylation enrichment (system: FGFR1 (UniProt P11362)) of LSNFNYEQRGA [API5_Y497_G493S]
Response given: 0.918

Challenge: Write down the reported phosphorylation enrichment (system: FGFR1 (UniProt P11362)) of SIKDKHVTALY [KCNH2_Y611_Y611H]
Response given: 0.408

Challenge: Write down the reported phosphorylation enrichment (system: FGFR1 (UniProt P11362)) of PSRKDYETYQP [CTNND2_Y1154]
Response given: 0.592

Challenge: Write down the reported phosphorylation enrichment (system: FGFR1 (UniProt P11362)) of SVDRDYVLKSA [HTATIP2_Y111_R106S]
Response given: 0.487

Challenge: Write down the reported phosphorylation enrichment (system: FGFR1 (UniProt P11362)) of DRLANYLEKVR [KRT40_Y103_S102N]
Response given: 0.382

Challenge: Write down the reported phosphorylation enrichment (system: FGFR1 (UniProt P11362)) of AESPEHVHMYT [FAM111A_Y511_Y511H]
Response given: 0.533

Challenge: Write down the reported phosphorylation enrichment (system: FGFR1 (UniProt P11362)) of DDPRTYQKYGY [OAS1_Y362_R361T]
Response given: 0.446

Challenge: Write down the reported phosphorylation enrichment (system: FGFR1 (UniProt P11362)) of DRSSLYLVAGP [KIAA1614_Y1083_N1078D]
Response given: 0.593

Challenge: Write down the reported phosphorylation enrichment (system: FGFR1 (UniProt P11362)) of CRVEPYGENFN [APOA4_Y310_R305C]
Response given: 0.603

Challenge: Write down the reported phosphorylation enrichment (system: FGFR1 (UniProt P11362)) of KENITYMKSEQ [L1TD1_Y24_R27S]
Response given: 0.456

Challenge: Write down the reported phosphorylation enrichment (system: FGFR1 (UniProt P11362)) of VKANTYEKFWP [GATM_Y100_YF]
Response given: 0.317

Challenge: Write down the reported phosphorylation enrichment (system: FGFR1 (UniProt P11362)) of FEEDPYLVVNP [MCM6_Y810_YF]
Response given: 1.23

Challenge: Write down the reported phosphorylation enrichment (system: FGFR1 (UniProt P11362)) of AFGTVYKGLWI [EGFR_Y727]
Response given: 0.517

Challenge: Write down the reported phosphorylation enrichment (system: FGFR1 (UniProt P11362)) of ISRLKYPVSQQ [BTK_Y375]
Response given: 0.317

Challenge: Write down the reported phosphorylation enrichment (system: FGFR1 (UniProt P11362)) of DWRQEYVLNES [TGM1_Y267]
Response given: 0.878

Challenge: Write down the reported phosphorylation enrichment (system: FGFR1 (UniProt P11362)) of ATGGFYSFGGG [KRT24_Y120_YF]
Response given: 0.481

Challenge: Write down the reported phosphorylation enrichment (system: FGFR1 (UniProt P11362)) of GNLLIYTEFGN [HGD_Y166_K171N]
Response given: 0.726
